B1: Poly(rC)-binding protein 1, residues 278 to 350; numbered along this chain, Q15365 (parent)
chain: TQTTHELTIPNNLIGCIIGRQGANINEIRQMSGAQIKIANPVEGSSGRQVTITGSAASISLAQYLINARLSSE

Variants of: B1
procedure-details: abundance fitness (aPCA) (normalised: wild type 0, dead -1); higher = more abundant; growth selection in yeast, the domain comes from the species named
recorded-conditions: Homo sapiens
Label criterion met when abundance fitness is at or above -0.3; anything below gets criterion not met.

Evaluate I14N : abundance fitness at minimum -0.3? criterion not met

Evaluate S55W : abundance fitness at minimum -0.3? criterion not met

Evaluate S45R : abundance fitness at minimum -0.3? criterion met

Evaluate S46D : abundance fitness at minimum -0.3? criterion met

Evaluate N26D : abundance fitness at minimum -0.3? criterion met

Evaluate N11R : abundance fitness at minimum -0.3? criterion met

Evaluate K37N : abundance fitness at minimum -0.3? criterion met

Evaluate G44Y : abundance fitness at minimum -0.3? criterion met
